FYI, the data here is from patent US6828322B2.

measurementName: melting point (°C)

* Cc1cc(COc2nn3c(-c4ccccc4F)nnc3cc2C2CCC2)no1 | 150
* Cn1cnc(COc2nn3c(-c4ccccc4F)nnc3cc2C2CCC2)c1 | 176
* Cn1ccnc1COc1nn2c(-c3ccccc3F)nnc2cc1C1CCC1 | 173
* Cn1ncnc1COc1nn2c(-c3ccccc3F)nnc2cc1C1CC(F)(F)C1 | 178
* Cn1ncnc1COc1nn2c(-c3ccccc3F)nnc2cc1C1(C)CCOCC1 | 191

* * *

measurementName: melting point (°C)

* Cn1cnnc1COc1nn2c(-c3ccccc3F)nnc2cc1C1CCC1 [Example 17] | 228
* Cn1cnc(COc2nn3c(-c4ccccc4F)nnc3cc2C2(C)CCC(F)(F)CC2)n1 [Example 40] | 193

* * *

Consider the following compounds and their measured melting point readings.

Any idea what melting point was measured for Cn1ncnc1COc1nn2c(-c3ccccc3F)nnc2cc1C1CCCO1 (stereo not shown) ?
136 to 139 °C

* * *

measurementName: melting point

• Cn1ncnc1COc1nn2c(-c3ccccc3F)nnc2cc1C(F)(F)F [Example 35] = 123 to 126 °C

Any idea what melting point was measured for Cn1ccc(COc2nn3c(-c4ccccc4F)nnc3cc2C2CCC2)n1 [Example 14] ?
184 to 186 °C

Any idea what melting point was measured for Cn1ncnc1COc1nn2c(-c3ccc(F)cc3F)nnc2cc1-c1cccs1 [Example 19] ?
209 to 212 °C
